- target-or-test-system: T1, VGLL1 (Vestigial-like 1) peptide on HLA-A*01:01 (human)
- T1 peptide: LSELETPGKY
- assay-name: multimer staining
measured-property: binding result

1) VGLL1 TCR #3 (TCR, V domains shown) Valpha: ENVEQHPSTLSVQEGDSAVIKCTYSDSASNYFPWYKQELGKRPQLIIDIRSNVGEKKDQRIAVTLNKTAKHFSLHITETQPEDSAVYFCAAIPNSGGYQKVTFGIGTKLQVIP Vbeta: GVTQSPTHLIKTRGQQVTLRCSPKSGHDTVSWYQQALGQGPQFIFQYYEEEERQRGNFPDRFSGHQFPNYSSELNVNALLLGDSALYLCASSVGTGITEAFFGQGTRLTVV :: recognises
2) VGLL1 TCR #4 (TCR, V domains shown) Valpha: QQQVKQSPQSLIVQKGGISIINCAYENTAFDYFPWYQQFPGKGPALLIAIRPDVSEKKEGRFTISFNKSAKQFSLHIMDSQPGDSATYFCAAVRYNFNKFYFGSGTKLNVKP Vbeta: GVTQSPTHLIKTRGQQVTLRCSPKSGHDTVSWYQQALGQGPQFIFQYYEEEERQRGNFPDRFSGHQFPNYSSELNVNALLLGDSALYLCASSVGTGITEAFFGQGTRLTVV :: recognises
3) VGLL1 TCR #2 (TCR, V domains shown) Valpha: ENVEQHPSTLSVQEGDSAVIKCTYSDSASNYFPWYKQELGKRPQLIIDIRSNVGEKKDQRIAVTLNKTAKHFSLHITETQPEDSAVYFCAARGLTGGGNKLTFGTGTQLKVEL Vbeta: GVTQSPTHLIKTRGQQVTLRCSPKSGHDTVSWYQQALGQGPQFIFQYYEEEERQRGNFPDRFSGHQFPNYSSELNVNALLLGDSALYLCASSVGTGITEAFFGQGTRLTVV :: recognises
